- Test system: P. falciparum 3D7
- assay.summary: P. falciparum growth inhibition assay, second round (SYBR Green I, ICEstimator)
- Assay type: cell-based, Plasmodium falciparum
- measurement.conditions: Plasmodium falciparum, 3D7, 48 h
reported.property: IC50 (nM)

Recorded results for 2 molecules are shown here.
Suppose we examine the molecule `O[C@H](CN[C@H](COCC1CC1)Cc1ccccc1)c1cc(-c2ccc(C(F)(F)F)cc2)nc(C(F)(F)F)c1` ; what IC50 value has been reported?
9.31

Would you mind telling me what IC50 value was observed for O[C@@H](CNCCCCCCF)c1ccc(-c2ccc(C(F)(F)F)cc2)nc1C(F)(F)F [Compound 30t] ?
1460

A. O[C@@H](CN[C@H](COCC1CC1)Cc1ccccc1)c1ccc(-c2ccc(C(F)(F)F)cc2)nc1C(F)(F)F [Compound 30v]
B. OC(c1cc(-c2ccc(C(F)(F)F)cc2)nc(C(F)(F)F)c1)C1CCCCN1 (racemic) [Enpiroline, reference compound]
C. OC(c1cc(C(F)(F)F)nc2c(C(F)(F)F)cccc12)C1CCCCN1 (centres unmarked) [MQ, Mefloquine, reference compound]
D. O[C@H](CNCCCCCCF)c1ccc(-c2ccc(C(F)(F)F)cc2)nc1C(F)(F)F [Compound 30s]
E. O[C@H](CN[C@H](COCC1CC1)Cc1ccccc1)c1ccc(-c2ccc(C(F)(F)F)cc2)nc1C(F)(F)F [Compound 30u]
Sort ascending by IC50. Give the labels in the order specified.
B, C, E, D, A
(B: 21.6 nM, C: 32.3 nM, E: 165 nM, D: 421 nM, A: 896 nM)
